Give measured ED50 for each item. Keep answers brief.
Tested on: mice
test.details: Muscular Relaxing Effect: Traction Test
Format: in vivo, dd Male mice
experimental.setup: Mus musculus, oral, hind legs on wire within 5 seconds, maximum response over 15-180 minutes, Litchfield Wilcoxon method, read-out: ED50 Values, T.T (Traction Test)
Numbers only, in mg/kg.

A selection of reference data follows.
[
  {
    "compound": "O=C1NCC(Cc2ccccc2Cl)O1 (centres unmarked) [Compound A, 5-(o-Chlorobenzyl)-2-oxazolidone, reference compound]",
    "measured.endpoint": "ED50",
    "quantitative.readout": 390
  },
  {
    "compound": "O=C1NCC(CCc2ccccc2F)O1 (centres unmarked) [Compound II, 5-(o-Fluorophenethyl)-2-oxazolidone]",
    "measured.endpoint": "ED50",
    "quantitative.readout": 230
  },
  {
    "compound": "Cc1ccccc1OCC(O)CO (centres unmarked) [Mephenesin, reference compound]",
    "measured.endpoint": "ED50",
    "quantitative.readout": 460
  },
  {
    "compound": "O=C1NCC(CCc2ccccc2Cl)O1 (centres unmarked) [Compound III, 5-(o-Chlorophenethyl)-2-oxazolidone]",
    "measured.endpoint": "ED50",
    "quantitative.readout": 225
  }
]

Need ED50 of O=C1NCC(CCc2ccccc2)O1 (centres unmarked) [Compound I, 5-Phenethyl-2-oxazolidone] , thanks. 217
